Tested on: TEC;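 also: KINOMEscan kinase panel screen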
Stated Conditions: concentration: 1 μM, replicates: in singlicate; n = 1
Readout Label: %Inh (%)
Report the value in % with no unit label.

Compound	Units Of Measure	%Inh
CSc1ccc(-c2nc3n(c2-c2ccncc2)CCC3)cc1	%	11

Query string: Identify %Inh associated with the compound CC(=O)c1cccc(NC(=O)NC2CCN(c3ccnc(Nc4ccc(F)cc4)n3)C2)c1 (stereo not drawn)
Result string: 4

Query string: Identify %Inh associated with the compound `Cc1ccccc1Cn1ccn2c(=O)cc(N3CCOCC3)nc12`
Result string: 16

Query string: Identify %Inh associated with the compound `CNc1nc(-c2ccc3c(N)n[nH]c3c2)cc(N2C[C@@H](C(=O)Nc3ccccc3)CC[C@H]2C)n1`
Result string: 4

Query string: Identify %Inh associated with the compound `CNC(=O)c1ccc(C)c(-n2c(C)cc(OCc3ccc(F)cc3F)c(Br)c2=O)c1`
Result string: 1

Query string: Identify %Inh associated with the compound Cn1cncc1C(=O)NC1CCN(c2ccnc(Nc3ccc(F)cc3)n2)C1 (stereo not drawn)
Result string: 4

Query string: Identify %Inh associated with the compound `CCCCc1nn2ncccc2c1-c1ccnc(NC2CC2)n1`
Result string: 3

Query string: Identify %Inh associated with the compound `CS(=O)(=O)CCNCc1nc(-c2ccc3ncnc(Nc4ccc(OCc5ccccc5)c(Cl)c4)c3c2)cs1.Cl`
Result string: 0

Query string: Identify %Inh associated with the compound `CCn1c(-c2c(N)noc2C)nc2cnccc21`
Result string: 1

Query string: Identify %Inh associated with the compound `COc1ccc(CSc2nnc(-c3ccc4nccn4c3)o2)cc1C(F)(F)F`
Result string: 21

Query string: Identify %Inh associated with the compound `CN1c2ccc(-c3ccc(C(N)=O)cc3)cc2-c2[nH]ncc2S1(=O)=O`
Result string: 0

Query string: Identify %Inh associated with the compound `Cc1cnc(N)c(/C=C/c2cncc(C(=O)NCCc3ccc(Cl)cc3Cl)c2)c1.Cl`
Result string: 18
